Test system: Huh7-C cells
protocol.text: CCK-8 assay in stem-like human hepatoma cell line Huh7-C
Assay type: cell-based
condition.info: Huh7-C, treated 60 h, read-out: CCK-8 assay in Huh7-C: IC50
property.name: IC50 (nM)

{"smiles.representation": "O=S(=O)(c1ccc(NC(=S)NCc2cccnc2)cc1)N1CCN(Cc2ccc(C(F)(F)F)cc2)CC1", "IC50 [nM]": 514}

1 = CC(C)(C)OC(=O)N1CCN(S(=O)(=O)c2ccc(NC(=S)NCc3cccnc3)cc2)CC1
2 = O=S(=O)(c1ccc(NC(=S)NCc2cccnc2)cc1)N1CCN(Cc2ccccc2)CC1
input: Lower value for measured IC50? Options: 1 , 2 Your answer should be the label attached to the chosen record.
output: 1
(1: 308 nM, 2: 1060 nM)

###

measured.target: NAMPT (Homo sapiens, UniProt P43490)
Sequence (P43490 whole entry): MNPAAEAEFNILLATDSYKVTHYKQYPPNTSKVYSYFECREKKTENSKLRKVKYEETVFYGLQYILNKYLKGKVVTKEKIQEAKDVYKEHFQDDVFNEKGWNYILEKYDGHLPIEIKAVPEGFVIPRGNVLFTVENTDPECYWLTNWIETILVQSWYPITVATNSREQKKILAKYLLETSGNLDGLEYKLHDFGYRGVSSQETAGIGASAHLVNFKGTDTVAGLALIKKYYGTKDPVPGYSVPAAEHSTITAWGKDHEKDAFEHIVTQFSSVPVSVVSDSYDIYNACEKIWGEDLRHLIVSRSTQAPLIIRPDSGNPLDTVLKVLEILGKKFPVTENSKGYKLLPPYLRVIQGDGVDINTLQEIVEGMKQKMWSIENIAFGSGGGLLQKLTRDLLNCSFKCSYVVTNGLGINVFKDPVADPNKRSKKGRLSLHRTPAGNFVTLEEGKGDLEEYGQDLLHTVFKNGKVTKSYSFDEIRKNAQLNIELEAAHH
protocol.text: NAMPT activity assay by fluorescence of NMN derivative (HTS system), IC50 determination
Type: biochemical
Design: His-tag; made in house; host or cells: E. coli BL21-CodonPlus (DE3)-RIL
condition.info: recombinant human NAMPT, mean ± s.e.; read-out: NAMPT IC50
pIC50: −log10 of the molar value.
property.name: pIC50

See these solved cases before continuing.
{"smiles.representation": "N#CN=C(NCc1cccnc1)Nc1ccc(S(=O)(=O)N2CCCC2)cc1", "measured.target": "NAMPT (Homo sapiens, UniProt P43490)", "pIC50": 6.24}
{"smiles.representation": "O=C(c1ccc(NC(=S)NCc2cccnc2)cc1)N1CCCCC1", "measured.target": "NAMPT (Homo sapiens, UniProt P43490)", "pIC50": 7.37}

A = N=C(NCc1cccnc1)Nc1ccc(S(=O)(=O)N2CCCCC2)cc1
B = O=S(=O)(c1ccc(NC(=S)NCc2cccnc2)cc1)N1CCN(Cc2ccccc2F)CC1
input: Compare A and B by numeric pIC50 and name the larger one. Your answer should be the label attached to the chosen record.
output: B

1 = Cc1ccccc1CN1CCN(S(=O)(=O)c2ccc(NC(=S)NCc3cccnc3)cc2)CC1
2 = O=S(=O)(c1ccc(NC(=S)NCc2cccnc2)cc1)N1CCN(Cc2ccc(C(F)(F)F)cc2)CC1
input: Param metric = pIC50; output whichever of 1 , 2 has the minimum value. Which one? Tell me its label.
output: 2

A = O=S(=O)(c1ccc(NC(=S)NCc2cccnc2)cc1)N1CCN(Cc2ccc(Cl)cc2)CC1
B = CN1CCN(S(=O)(=O)c2ccc(NC(=S)NCc3cccnc3)cc2)CC1
C = O=S(=O)(c1ccc(NC(=S)NCc2cccnc2)cc1)N1CCCC1
D = O=S(=O)(c1ccc(NC(=S)NCc2cccnc2)cc1)N1CCN(Cc2ccsc2)CC1
input: Order the records so the highest pIC50 appears first and the lowest last. State the ranking by listing the labels in the requested order.
output: A, D, C, B
(A: 7.86, D: 7.65, C: 7.36, B: 7.02)

P = Cc1ccc(N2CCN(S(=O)(=O)c3ccc(NC(=S)NCc4cccnc4)cc3)CC2)cc1
Q = CCCCc1ccc(CN2CCN(S(=O)(=O)c3ccc(NC(=S)NCc4cccnc4)cc3)CC2)cc1
input: Parameter check: reported pIC50 is higher for which label, P or Q ? Response format: the label of the selected entry.
output: P
(P: 7.81, Q: 7.10)
